target system: KRAS G13C (Homo sapiens, UniProt P01116+P62937, G13C)
Sequence (P01116 1-169 isoform P01116-2 G13C): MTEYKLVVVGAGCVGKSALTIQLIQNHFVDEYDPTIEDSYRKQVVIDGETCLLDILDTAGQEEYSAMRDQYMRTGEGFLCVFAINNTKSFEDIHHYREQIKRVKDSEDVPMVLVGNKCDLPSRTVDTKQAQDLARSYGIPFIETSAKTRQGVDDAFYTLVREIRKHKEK
Sequence (P62937 whole entry): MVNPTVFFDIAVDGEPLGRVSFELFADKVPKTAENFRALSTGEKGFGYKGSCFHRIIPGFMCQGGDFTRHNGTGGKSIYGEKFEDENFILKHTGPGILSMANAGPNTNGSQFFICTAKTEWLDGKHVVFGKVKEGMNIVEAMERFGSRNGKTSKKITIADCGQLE
assay summary: Disruption of BRAF RBD interaction with Ras (FRET / MOA assay, with Cyclophilin A)
Format: biochemical
recorded conditions: read-out: KRAS G13C FRET data, IC50
pIC50: −log10 of the molar value.
quantity: pIC50

CCn1c(-c2cccnc2[C@H](C)OC)c2c3cc(ccc31)-c1csc(n1)C[C@H](NC(=O)[C@H](C(C)C)N(C)C(=O)N1CCO[C@@H](C)C1)C(=O)N1CCC[C@H](N1)C(=O)OCC(C)(C)C2 (atropisomer, axis not shown); 6.00 to 7.00

Proceeding to the next compound to report its pIC50.
Dear colleague, I am looking for the recorded pIC50 of the following compound: CCn1c(-c2cccnc2[C@H](C)OC)c2c3cc(ccc31)-c1cc(O)cc(c1)C[C@H](NC(=O)[C@H](C(C)C)N(C)C(=O)C1CC3CC1CN3)C(=O)N1CCC[C@H](N1)C(=O)OCC(C)(C)C2 (some centres unmarked) 7.00 to 8.00

###

target system: NRAS Q61K (Homo sapiens, UniProt P01111+P62937, Q61K)
Sequence (P01111 whole entry Q61K, one chain of several): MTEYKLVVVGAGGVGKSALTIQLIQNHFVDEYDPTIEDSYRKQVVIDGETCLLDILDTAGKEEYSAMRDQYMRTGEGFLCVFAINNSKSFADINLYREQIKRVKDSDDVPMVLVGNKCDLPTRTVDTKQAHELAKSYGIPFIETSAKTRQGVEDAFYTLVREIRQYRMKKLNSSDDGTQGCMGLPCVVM
assay summary: Ras-Raf disruption / FRET / MOA assay (BRAF RBD)
Format: biochemical
quantity: IC50

CCn1c(-c2cccnc2[C@H](C)OC)c2c3cc(ccc31)-c1cc(O)cc(c1)C[C@H](NC(=O)[C@H](C(C)C)N(C)C(=O)CN(C)C(=O)[C@@H]1N[C@@H]1C(C)C)C(=O)N1CCC[C@H](N1)C(=O)OCC(C)(C)C2; 0.01 to 0.1 µM
CCn1c(-c2cccnc2[C@H](C)OC)c2c3cc(ccc31)-c1cc(O)cc(c1)C[C@H](NC(=O)[C@H](C(C)C)N(C)C(=O)CN(C)C(=O)[C@H]1N[C@H]1C(F)(F)F)C(=O)N1CCC[C@H](N1)C(=O)OCC(C)(C)C2; 0.1 to 1 µM

If you can, please state the reported IC50 value of CCn1c(-c2cccnc2[C@H](C)OC)c2c3cc(ccc31)-c1cc(O)cc(c1)C[C@H](NC(=O)[C@H](C(C)C)N(C)C(=O)CN(C)C(=O)[C@H]1CN1CC(=O)N(C)C)C(=O)N1CCC[C@H](N1)C(=O)OCC(C)(C)C2 (some centres unmarked) . 1 to 10 µM

Try this compound too: CCn1c(-c2cccnc2[C@H](C)OC)c2c3cc(ccc31)-c1cc(O)cc(c1)C[C@H](NC(=O)[C@H](C(C)C)N(C)C(=O)CN(C)C(=O)[C@H]1CN1CCCOC(C)=O)C(=O)N1CCC[C@H](N1)C(=O)OCC(C)(C)C2 (some centres unmarked) 0.1 to 1 µM

Now try `CCn1c(-c2cccnc2[C@H](C)OC)c2c3cc(ccc31)-c1cc(O)cc(c1)C[C@H](NC(=O)[C@H](C(C)C)N(C)C(=O)C13CCC(CC1)N3C(=O)[C@H]1CN1)C(=O)N1CCC[C@H](N1)C(=O)OCC(C)(C)C2` . 0.1 to 1 µM

###

target system: KRAS G12V (Homo sapiens, UniProt P01116+P62937, G12V)
Sequence (P01116 1-169 isoform P01116-2 G12V limits assumed, one chain of several): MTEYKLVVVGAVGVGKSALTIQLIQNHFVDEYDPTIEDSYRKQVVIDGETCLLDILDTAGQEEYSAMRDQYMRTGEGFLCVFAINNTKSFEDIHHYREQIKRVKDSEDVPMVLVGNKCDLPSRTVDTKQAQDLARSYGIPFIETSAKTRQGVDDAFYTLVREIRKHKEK
assay summary: Ras-Raf disruption / FRET / MOA assay (BRAF RBD)
Format: biochemical
recorded conditions: Ras-Raf disruption, with Cyclophilin A; read-out: KRAS G12V FRET data IC50
In this section we review reported IC50 values for a set of compounds.

CCn1c(-c2cccnc2[C@H](C)OC)c2c3cc(ccc31)-c1cc(O)cc(c1)C[C@H](NC(=O)[C@H](C(C)C)N(C)C(=O)[C@@H]1CCN(C(=O)[C@H]3CN3)[C@@H]1C)C(=O)N1CCC[C@H](N1)C(=O)OCC(C)(C)C2 (atropisomer, axis not shown) [Example 207]; 10 to 100 nM

Entry CCn1c(-c2cccnc2[C@H](C)OC)c2c3cc(ccc31)-c1csc(n1)C[C@H](NC(=O)[C@H](C(C)C)N(C)C(=O)N1CCN(C(=O)[C@H]3CN3)CC1)C(=O)N1CCC[C@H](N1)C(=O)OCC(C)(C)C2 [Example 169] has what IC50? 100 to 1000 nM

Values compiled from patent US20230233569A1.
